Source: patent US20260069725A1

// values below are reported Exposure in Tumor
- System: LNCaP tumor bearing mice
- protocol.summary: SPECT/CT scanning, exposure of 177Lu labeled compounds in tumor and tissues
- Assay type: in vivo
- applied.conditions: labeled with 177Lu; about 7.4 MBq (200 μCi) tail vein; scans 1-72 h
Report the figure in h*ID %/g without appending any unit label.

Q: Record request: Exposure in Tumor value, item COc1ccc(C(=O)N[C@@H](CCCCNC(=O)CN2CCN(CC(=O)O)CCN(CC(=O)O)CCN(CC(=O)O)CC2)C(=O)NCC2CCC(C(=O)N[C@@H](Cc3ccc4ccccc4c3)C(=O)NCCCC[C@H](NC(=O)N[C@@H](CCC(=O)O)C(=O)O)C(=O)O)CC2)cc1 (stereo partly shown) [PSMA-I]
A: 95.56

Q: For O=C(O)CCCCCCCCCCC(=O)N[C@@H](CCCCNC(=O)CN1CCN(CC(=O)O)CCN(CC(=O)O)CCN(CC(=O)O)CC1)C(=O)NCC1CCC(C(=O)N[C@@H](Cc2ccc3ccccc3c2)C(=O)NCCCC[C@H](NC(=O)N[C@@H](CCC(=O)O)C(=O)O)C(=O)O)CC1 (stereo partly shown) [PSMA-H] then?
A: 441.2

* * *

Each entry below carries its recorded Exposure in Kidney.
- Tested on: LNCaP tumor bearing mice
- protocol.summary: SPECT/CT scanning, exposure of 177Lu labeled compounds in tumor and tissues
- Assay type: in vivo
- applied.conditions: labeled with 177Lu; about 7.4 MBq (200 μCi) tail vein; scans 1-72 h
Kindly answer with a numeric value in h*ID %/g, unit omitted.

Q: So what's the measured Exposure in Kidney for this one? O=C(O)CCCCCCCCCCC(=O)N[C@@H](CCCCNC(=O)CN1CCN(CC(=O)O)CCN(CC(=O)O)CCN(CC(=O)O)CC1)C(=O)NCC1CCC(C(=O)N[C@@H](Cc2ccc3ccccc3c2)C(=O)NCCCC[C@H](NC(=O)N[C@@H](CCC(=O)O)C(=O)O)C(=O)O)CC1 (stereo partly shown)
A: 575

Q: What about this compound? COc1ccc(CCCC(=O)NC(CCC(N)=O)C(=O)N[C@@H](CCCCNC(=O)CN2CCN(CC(=O)O)CCN(CC(=O)O)CCN(CC(=O)O)CC2)C(=O)NCC2CCC(C(=O)N[C@@H](Cc3ccc4ccccc4c3)C(=O)NCCCC[C@H](NC(=O)N[C@@H](CCC(=O)O)C(=O)O)C(=O)O)CC2)cc1 (stereo partly shown)
A: 239

Q: Now the same for O=C(O)CCCCCCCCCCCCC(=O)N[C@@H](CCCCNC(=O)CN1CCN(CC(=O)O)CCN(CC(=O)O)CCN(CC(=O)O)CC1)C(=O)NCC1CCC(C(=O)N[C@@H](Cc2ccc3ccccc3c2)C(=O)NCCCC[C@H](NC(=O)N[C@@H](CCC(=O)O)C(=O)O)C(=O)O)CC1 (stereo partly shown)
A: 1589

Note: attention shifts to another entry.
Q: So what does the record say about Exposure in Kidney for O=C(O)CC[C@H](NC(=O)N[C@@H](CCCCNC(=O)[C@H](Cc1ccc2ccccc2c1)NC(=O)[C@H]1CC[C@H](CNC(=O)CN2CCN(CC(=O)O)CCN(CC(=O)O)CCN(CC(=O)O)CC2)CC1)C(=O)O)C(=O)O [PSMA-617, reference compound] ?
A: 77.45

* * *

- Test system: LNCaP tumor bearing mice
- protocol.summary: SPECT/CT scanning, exposure of 177Lu labeled compounds in tumor and tissues
- Assay type: in vivo
- applied.conditions: labeled with 177Lu; about 7.4 MBq (200 μCi) tail vein; scans 1-72 h
In this section we review reported Exposure in Bone values for a set of molecules.
Field: numeric (h*ID %/g). Do not append units.

Q: Look at this molecule and give its reported Exposure in Bone. COc1ccc(CCCC(=O)NC(CCCNC(=N)N)C(=O)N[C@@H](CCCCNC(=O)CN2CCN(CC(=O)O)CCN(CC(=O)O)CCN(CC(=O)O)CC2)C(=O)NCC2CCC(C(=O)N[C@@H](Cc3ccc4ccccc4c3)C(=O)NCCCC[C@H](NC(=O)N[C@@H](CCC(=O)O)C(=O)O)C(=O)O)CC2)cc1 (some centres unmarked)
A: 40.07

With those in mind, consider the next molecule.
Q: Form field: reported Exposure in Bone of COc1ccc(CCCC(=O)NC(CCC(N)=O)C(=O)N[C@@H](CCCCNC(=O)CN2CCN(CC(=O)O)CCN(CC(=O)O)CCN(CC(=O)O)CC2)C(=O)NCC2CCC(C(=O)N[C@@H](Cc3ccc4ccccc4c3)C(=O)NCCCC[C@H](NC(=O)N[C@@H](CCC(=O)O)C(=O)O)C(=O)O)CC2)cc1 (some centres unmarked)
A: 51.75
